# target.system: Multidrug resistance-associated protein 1 (Homo sapiens)
# assay.details: Inhibition of MRP1 in human 2008/MRP1 cells assessed as potentiation of doxorubicin-induced cytotoxicity by measuring cell survival at 2 uM after 5 days by MTS assay relative to control
# Type: cell-based
# reported.conditions: 120 h
Binary label based on Survival with cut-off 60%: below gives true, not below gives false.

INSERT INTO measurements (smiles_string, answer_label) VALUES
  ('[N-]=[N+]=NCCOCCOc1ccc2c(=O)cc(-c3ccccc3)oc2c1', 'false'),
  ('COc1cccc(COc2c(-c3ccc(OCCCCc4cn(CCOCCOc5ccc(-c6oc7ccccc7c(=O)c6OCc6cccc(OC)c6)cc5)nn4)cc3)oc3ccccc3c2=O)c1', 'true'),
  ('O=c1cc(-c2ccccc2)oc2cc(OCCN(Cc3ccccc3)Cc3cn(CCOCCOCCOc4ccc(-c5cc(=O)c6cc(F)ccc6o5)cc4)nn3)ccc12', 'true'),
  ('O=c1cc(-c2ccccc2)oc2cc(OCCOCCOCCn3cc(CCCOc4ccc(-c5cc(=O)c6cc(F)ccc6o5)cc4)nn3)ccc12', 'true'),
  ('C#CCCCCOc1ccc(/C=C/C(=O)c2ccc(C)cc2O)cc1', 'false');

Okay, next one:
Consider the molecule Cc1ccc(C(=O)/C=C/c2ccc(OCCCCc3cn(CCOCCOc4ccc(-c5cc(=O)c6cc(F)ccc6o5)cc4)nn3)cc2)c(O)c1 . Is its Survival strictly less than 60%?
false

---

# Tested on: L929
# assay.details: Cytotoxicity against mouse L929 cells assessed as reduction in cell survival after 5 days by MTS assay
# Type: cell-based
# reported.conditions: L929, 120 h
# reported IC50; entries follow

// below: answered compounds
INSERT INTO measurements (smiles_string, result) VALUES
  ('O=c1cc(-c2ccc(OCCOCCn3cc(CCCCOc4ccc5c(=O)cc(-c6ccccc6)oc5c4)nn3)cc2)oc2ccccc12', '> 100 µM'),
  ('Cc1ccc2oc(-c3ccc(OCCCCc4cn(CCOCCOCCOc5ccc(-c6cc(=O)c7cc(F)ccc7o6)cc5)nn4)cc3)cc(=O)c2c1', '> 100 µM'),
  ('O=c1cc(-c2ccc(OCCOCCn3cc(COCCOc4ccc5c(=O)cc(-c6ccccc6)oc5c4)nn3)cc2)oc2ccccc12', '> 50 µM');

Could you now look at the following compound, please?
# lookup: O=c1cc(-c2ccc(OCCCc3cn(CCOCCOc4ccc5c(=O)cc(-c6ccccc6)oc5c4)nn3)cc2)oc2cc(F)ccc12 on L929, IC50 = > 100 µM

---

# target.system: Multidrug resistance-associated protein 1 (Homo sapiens, UniProt P33527)
# Sequence (P33527 whole entry): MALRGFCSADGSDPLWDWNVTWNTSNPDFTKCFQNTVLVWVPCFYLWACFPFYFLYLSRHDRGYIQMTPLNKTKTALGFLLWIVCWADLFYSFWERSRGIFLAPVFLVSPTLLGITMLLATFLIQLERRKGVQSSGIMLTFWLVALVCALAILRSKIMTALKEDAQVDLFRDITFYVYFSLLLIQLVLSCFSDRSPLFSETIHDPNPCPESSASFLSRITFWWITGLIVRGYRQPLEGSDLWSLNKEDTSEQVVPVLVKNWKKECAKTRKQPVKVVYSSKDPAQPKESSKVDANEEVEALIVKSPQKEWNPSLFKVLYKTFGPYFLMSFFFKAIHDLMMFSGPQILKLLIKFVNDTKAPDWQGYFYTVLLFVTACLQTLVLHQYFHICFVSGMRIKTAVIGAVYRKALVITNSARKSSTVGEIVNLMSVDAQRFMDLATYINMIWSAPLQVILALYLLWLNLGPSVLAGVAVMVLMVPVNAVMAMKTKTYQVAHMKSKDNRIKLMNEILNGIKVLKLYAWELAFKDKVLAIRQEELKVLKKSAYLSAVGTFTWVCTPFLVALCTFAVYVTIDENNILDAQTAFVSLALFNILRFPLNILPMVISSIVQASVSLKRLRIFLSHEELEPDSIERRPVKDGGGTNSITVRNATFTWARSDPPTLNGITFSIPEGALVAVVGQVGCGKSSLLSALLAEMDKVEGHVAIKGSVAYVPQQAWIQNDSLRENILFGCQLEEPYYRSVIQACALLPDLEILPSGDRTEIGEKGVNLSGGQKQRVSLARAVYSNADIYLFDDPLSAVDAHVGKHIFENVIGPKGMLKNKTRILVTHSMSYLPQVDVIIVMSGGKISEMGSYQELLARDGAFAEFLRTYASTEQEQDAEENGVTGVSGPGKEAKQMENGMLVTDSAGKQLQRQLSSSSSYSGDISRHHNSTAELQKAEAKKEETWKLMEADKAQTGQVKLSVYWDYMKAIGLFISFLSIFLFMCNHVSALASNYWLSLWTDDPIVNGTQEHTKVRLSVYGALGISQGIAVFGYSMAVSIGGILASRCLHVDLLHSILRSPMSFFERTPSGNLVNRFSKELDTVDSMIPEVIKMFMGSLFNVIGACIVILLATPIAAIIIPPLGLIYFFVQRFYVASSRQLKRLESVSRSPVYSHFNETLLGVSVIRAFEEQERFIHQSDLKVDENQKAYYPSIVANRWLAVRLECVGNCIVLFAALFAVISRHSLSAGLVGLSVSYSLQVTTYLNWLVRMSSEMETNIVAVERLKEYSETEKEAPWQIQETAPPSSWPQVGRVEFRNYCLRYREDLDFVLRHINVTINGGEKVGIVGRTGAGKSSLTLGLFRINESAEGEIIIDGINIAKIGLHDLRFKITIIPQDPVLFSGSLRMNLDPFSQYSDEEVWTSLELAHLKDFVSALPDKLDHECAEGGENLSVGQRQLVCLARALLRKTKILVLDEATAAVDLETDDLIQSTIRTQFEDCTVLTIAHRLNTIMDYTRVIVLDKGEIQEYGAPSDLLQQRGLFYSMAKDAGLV
# assay.details: Inhibition of MRP1 in human 2008/MRP1 cells assessed as potentiation of doxorubicin-induced cytotoxicity by measuring cell survival at 2 uM after 5 days by MTS assay relative to control
# Assay type: cell-based
# reported.conditions: 120 h
measurement.kind: Survival (%)
Numeric answer only, unit % assumed.

Recorded results for 2 compounds are shown here.
INSERT INTO assay_data (smiles_string, quantitative_result) VALUES
  ('Cc1ccc2oc(-c3ccc(OCCOCCOCCn4cc(CCN5C(=O)c6ccccc6C5=O)nn4)cc3)cc(=O)c2c1', 81),
  ('O=C1c2ccccc2C(=O)N1CCc1cn(CCOCCOCCOc2ccc(-c3oc4ccccc4c(=O)c3OCc3ccccc3)cc2)nn1', 34);

get_value(item= COc1cccc(COc2c(-c3ccc(OCCCCc4cn(CCOCCOc5ccc(-c6oc7ccccc7c(=O)c6OCc6ccccc6)cc5)nn4)cc3)oc3ccccc3c2=O)c1 , readout=Survival) returns 68

The compound identified as O=c1cc(-c2ccc(OCCOCCn3cc(-c4cccc(-c5cn(CCOCCOc6ccc(-c7cc(=O)c8cc(F)ccc8o7)cc6)nn5)c4)nn3)cc2)oc2ccc(F)cc12 registered its Survival at 74

O=C(/C=C/c1ccc(OCCCCc2cn(CCOCCOc3ccc4c(=O)cc(-c5ccccc5)oc4c3)nn2)cc1)c1ccc(F)cc1O yielded Survival of 64

// field: Survival; key: CCc1ccc(O)c(C(=O)/C=C/c2ccc(OCCCCc3cn(CCOCCOCCOc4ccc(-c5cc(=O)c6cc(F)ccc6o5)cc4)nn3)cc2)c1 ; value = 67

Notebook: Cc1ccc2oc(-c3ccc(OCCCCc4cn(CCOCCOc5ccc(-c6cc(=O)c7cc(F)ccc7o6)cc5)nn4)cc3)cc(=O)c2c1 , Survival read as 30

Kindly note the recorded Survival for O=c1cc(-c2ccc(OCCCc3cn(CCOCCOCCOc4ccc5c(=O)cc(-c6ccccc6)oc5c4)nn3)cc2)oc2ccccc12 , which is 42

Kindly note the recorded Survival for O=c1cc(-c2ccccc2)oc2cc(OCCCc3cn(CCOCCOc4cccc(-c5oc6ccccc6c(=O)c5OCc5ccccc5)c4)nn3)ccc12 , which is 65

The reported Survival of the compound O=C(/C=C/c1ccc(OCCCCc2cn(CCOCCOc3ccc(-c4cc(=O)c5cc(F)ccc5o4)cc3)nn2)cc1)c1ccc(F)cc1O was 70

Quick note, Survival for Cc1ccc2oc(-c3ccc(OCCCCc4cn(CCOCCOCCOc5ccc(-c6cc(=O)c7cc(F)ccc7o6)cc5)nn4)cc3)cc(=O)c2c1 landed at 34

Measured Survival, CCc1ccc(O)c(C(=O)/C=C/c2ccc(OCCCCc3cn(CCOCCOCCOc4ccc(-c5oc6ccccc6c(=O)c5OCc5ccccc5)cc4)nn3)cc2)c1 : 77

Looking up O=c1cc(-c2ccccc2)oc2cc(OCCOCCn3cc(CN4CCN(Cc5cn(CCOCCOc6ccc7oc(-c8ccccc8)cc(=O)c7c6)nn5)CC4)nn3)ccc12 , I found its Survival recorded as 99

The measured Survival associated with O=c1cc(-c2ccccc2)oc2cc(OCCCc3cn(CCOCCOCCOc4ccc5c(=O)cc(-c6ccccc6)oc5c4)nn3)ccc12 reads 57

---

# target.system: Multidrug resistance-associated protein 1 (Homo sapiens, UniProt P33527)
# assay.details: Inhibition of MRP1 in human 2008/MRP1 cells assessed as potentiation of doxorubicin-induced cytotoxicity by measuring cell survival at 2 uM after 5 days by MTS assay relative to control
# Format: cell-based
# reported.conditions: 120 h
Please use the following Survival ranges when assigning a class: lowest: < 70%; middle: ≥ 70% and < 90%; highest: ≥ 90%

INSERT INTO measurements (smiles_string, answer_label) VALUES
  ('O=c1cc(-c2ccc(OCCOCCOCCn3cc(CCCOc4ccc(-c5cc(=O)c6cc(F)ccc6o5)cc4)nn3)cc2)oc2ccccc12', 'middle');

Classify this compound: Cc1ccc2oc(-c3ccc(OCCOCCOCCn4cc(-c5cccc(-c6cn(CCOCCOCCOc7ccc(-c8cc(=O)c9cc(C)ccc9o8)cc7)nn6)c5)nn4)cc3)cc(=O)c2c1
middle

Form field 'band' for O=c1cc(-c2ccc(OCCOCCn3cc(CCCOc4ccc(-c5cc(=O)c6ccc(F)cc6o5)cc4)nn3)cc2)oc2ccccc12
lowest

Each compound maps to one class by Survival. Which class for Cc1ccc(O)c(C(=O)/C=C/c2ccc(OCCCCc3cn(CCOCCOCCOc4ccc(-c5cc(=O)c6cc(C)ccc6o5)cc4)nn3)cc2)c1 ?
lowest

---

# target.system: Multidrug resistance-associated protein 1 (Homo sapiens, UniProt P33527)
# assay.details: Inhibition of MRP1 in human 2008/MRP1 cells assessed as potentiation of doxorubicin-induced cytotoxicity by measuring cell survival at 2 uM after 5 days by MTS assay relative to control
# Type: cell-based
# reported.conditions: 120 h
Survival less than 80% is Met; Survival greater than or equal to 80% is Not met.

INSERT INTO assay_data (smiles_string, answer_label) VALUES
  ('Cc1ccc2oc(-c3ccc(OCCCCc4cn(CCOCCOCCOc5ccc(-c6cc(=O)c7ccccc7o6)cc5)nn4)cc3)cc(=O)c2c1', 'Met');

Could you please tell me whether Survival recorded for O=c1cc(-c2ccc(OCCOCCn3cc(CN(Cc4cn(CCOCCOc5ccc(-c6cc(=O)c7cc(F)ccc7o6)cc5)nn4)Cc4cn(CCOCCOc5ccc(-c6cc(=O)c7cc(F)ccc7o6)cc5)nn4)nn3)cc2)oc2ccc(F)cc12 is less than 80%?
Met

State whether 80% exceeds Survival recorded for C#CCCCCOc1ccc(/C=C/C(=O)c2ccccc2O)cc1 .
Not met

hey, is Survival for O=C1c2ccccc2C(=O)N1CCc1cn(CCOCCOc2ccc(-c3cc(=O)c4ccccc4o3)cc2)nn1 lower than 80% or not?
Met

Find out if reported Survival for CN(CCN(C)Cc1cn(CCOCCOc2ccc(-c3cc(=O)c4ccccc4o3)cc2)nn1)Cc1cn(CCOCCOc2ccc(-c3cc(=O)c4ccccc4o3)cc2)nn1 is less than 80%
Not met

Consider the compound Cc1ccc2oc(-c3ccc(OCCCCc4cn(CCOc5cccc6c(=O)cc(-c7ccccc7)oc56)nn4)cc3)cc(=O)c2c1 . Is its Survival strictly less than 80%?
Met

I'd appreciate it if you could check whether COc1cccc(COc2c(-c3ccc(OCCOCCn4cc(CCCCOc5ccc(/C=C/C(=O)c6ccccc6O)cc5)nn4)cc3)oc3ccccc3c2=O)c1 has Survival smaller than 80%.
Met

Is the reported Survival for O=c1cc(-c2ccccc2)oc2cc(OCCOCCOCCn3cc(-c4cccc(-c5cn(CCOCCOCCOc6ccc7c(=O)cc(-c8ccccc8)oc7c6)nn5)c4)nn3)ccc12 strictly below 80%?
Met

Please let me know if O=c1[nH]c(-c2ccc(OCCCc3cn(CCOCCOCCOc4ccc(-c5oc6ccccc6c(=O)c5OCc5ccccc5)cc4)nn3)cc2)nc2ccccc12 shows Survival below 80%.
Met

Does CN(CCN(C)Cc1cn(CCOc2ccc3occ(-c4ccccc4)c(=O)c3c2)nn1)Cc1cn(CCOc2ccc3c(=O)cc(-c4ccccc4)oc3c2)nn1 have Survival strictly under 80%?
Not met

Does the reported Survival of the following compound sit strictly below 80%? C#CCCCOc1ccc(-c2cc(=O)c3c(OCc4ccccc4)cc(OCOC)cc3o2)cc1
Met

Find out if reported Survival for O=C1c2ccccc2C(=O)N1CCc1cn(CCOCCOCCOc2ccc3c(=O)cc(-c4ccccc4)oc3c2)nn1 is less than 80%
Met

A record lists COc1cccc(COc2c(-c3ccc(OCCCCc4cn(CCOCCOCCOc5ccc(-c6cc(=O)c7cc(C)ccc7o6)cc5)nn4)cc3)oc3ccccc3c2=O)c1 . Is its Survival below 80%?
Met

Just wondering, is Survival of Cc1ccc(C(=O)/C=C/c2ccc(OCCCCc3cn(CCOCCOc4ccc(-c5cc(=O)c6ccccc6o5)cc4)nn3)cc2)c(O)c1 below 80%?
Met

Regarding C#CCCCCOc1ccc(C=O)cc1 , kindly confirm whether its Survival is beneath 80%.
Not met

Record Cc1ccc2oc(-c3ccc(OCCOCCOCCn4cc(CN5CCN(Cc6cn(CCOCCOCCOc7ccc(-c8cc(=O)c9cc(C)ccc9o8)cc7)nn6)CC5)nn4)cc3)cc(=O)c2c1 : is its Survival strictly below 80%?
Not met

Would you kindly verify if Survival of O=c1[nH]c(-c2ccc(OCCCc3cn(CCOCCOc4ccc(-c5cc(=O)c6ccccc6o5)cc4)nn3)cc2)nc2ccccc12 is strictly less than 80%?
Met

Problem: For the compound C#CCCCCOc1ccc(/C=C/C(=O)c2ccc(F)cc2O)cc1 , is Survival under 80%?
Not met

Is 80% strictly greater than the compound's reported Survival? compound: [N-]=[N+]=NCCOCCOCCOc1ccc(-c2cc(=O)c3cc(F)ccc3o2)cc1
Not met
